test: Plasmodium falciparum growth inhibition, primary screen, strain 3D7, DAPI fluorescence, 100 nL (AID 1184);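 also: parasites grown inside human red blood cells in medium with human serum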; details: P. falciparum 3D7 growth, 3 d, higher = more signal
true (1) means recorded z-score is -0.7 or above; false (0) means it is below -0.7.

Example entries begin here.
{"columns": ["molecule", "category"],
 "data": [
  ["CC(C)C(O)C1C=CC2C(=O)N(C)C(=O)C2N1N(c1ccccc1)c1ccccc1 (configuration not stated)", "true (1)"],
  ["COCCOC(=O)N1C(=O)[C@@]2(c3ccccc31)[C@H](c1ccc(OCCO)cc1)N1[C@H](c3ccccc3)[C@H](c3ccccc3)OC(=O)[C@H]1[C@@H]2C(=O)Nc1nc2ccccc2s1", "true (1)"],
  ["O=C1C[C@]2(c3ccc([N+](=O)[O-])cc3)C(=O)N(Cc3ccccc3)c3cc(CO)ccc3[C@H]2N1CC12CC3CC(CC(C3)C1)C2", "false (0)"],
  ["CN(C)CCCNC(=O)[C@@]1(c2ccc([N+](=O)[O-])cc2)CC(=O)N(CC23CC4CC(CC(C4)C2)C3)[C@@H]1c1ccc(CO)cc1", "false (0)"],
  ["CCOC(=O)C[C@H]1[C@H](OC(=O)c2ccc(-c3ccccc3)cc2)[C@@H](NC(=O)C2CCCCC2)c2cc(OCCCO)ccc2N1C(=O)c1ccccc1", "false (0)"],
  ["[N-]=[N+]=Nc1ccccc1C[C@@]1(C(=O)O)N=C(c2ccc(OCCCO)cc2)O[C@@H]1c1ccccc1", "true (1)"]
]}

Query: Is z-score for "COc1ccc([Si](C)(C)[C@@H]2[C@@H](CC(=O)N3CCC[C@H]3CO)O[C@]3(C(=O)N(Cc4ccc(N5C(=O)c6cccc7cccc5c67)cc4)c4ccccc43)[C@H]2C)cc1" at or above -0.7?
Result: false (0)

----------
test: small-molecule binders of probe aLefty1, primary screen, biochemical, small-molecule microarray, 635/667 nm fluorescence (AID 1153); settings: higher = more signal;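 also: score merges spot fluorescence with signal-to-noise ratio from the scanned slide images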
T means recorded composite z-score is 0.3 or above; F means it is below 0.3.

Example entries begin here.
{"columns": ["molecule", "category"],
 "data": [
  ["COCCOC(=O)N1C(=O)[C@@]2(c3cc(C#CCNC(N)=O)ccc31)[C@H](C(=O)N1CCCCCCC1)[C@H]1C(=O)O[C@H](c3ccccc3)[C@H](c3ccccc3)N1[C@@H]2c1ccc(O)cc1", "F"],
  ["CCOC(=O)C[C@H]1[C@H](OC(=O)c2ccccc2-c2ccccc2)[C@@H](NC(=O)c2ccc3ccccc3n2)c2cc(OCCCO)ccc2N1C(=O)c1ccc2ccccc2n1", "F"],
  ["C=CCNC(=O)[C@H]1[C@@H]2C(=O)O[C@@H](c3ccccc3)[C@@H](c3ccccc3)N2[C@@H](c2ccccc2OCCO)[C@]12C(=O)N(C(=O)OCCOC)c1ccc(C#CC3=CCCCC3)cc12", "T"],
  ["CC[C@H]1C2=C3C(CC[C@H]4C(OCc5ccc(F)cc5C(F)(F)F)OC[C@](C)([C@@H]34)N(C(=O)OC(C)(C)C)C2)C2COC(=O)OCC21 (stereo partly drawn)", "T"],
  ["CCOC(=O)[C@@H]1[C@@H]2C(=O)N(CC)C(=O)[C@@H]2C[C@@H]1Sc1ccccc1", "F"],
  ["[N-]=[N+]=NCc1ccccc1C[C@@]1(C(N)=O)N=C(c2ccc(OCCCO)cc2)O[C@@H]1c1ccccc1CN=[N+]=[N-]", "T"]
]}

Query: Is composite z-score for "CO[C@H]1O[C@H](CO)[C@@H](OC(=O)c2ccc(Br)cc2)[C@@H]2OC(=O)[C@@H](Cc3ccc4ccccc4c3)C/C=C/C[C@H](Cc3ccc4ccccc4c3)C(=O)O[C@@H]12" at or above 0.3?
Result: F

Query: Is composite z-score for "COCCOC(=O)N1C(=O)[C@@]2(c3cc(C#CC4=CCCCC4)ccc31)[C@H](c1ccccc1OCCO)N1[C@H](c3ccccc3)[C@H](c3ccccc3)OC(=O)[C@H]1[C@@H]2C(=O)N1CCc2cc(OC)c(OC)cc2C1" at or above 0.3?
Result: F

Query: Is composite z-score for "NC(=O)NCC#Cc1ccc2c(c1)[C@]1(C(=O)N2)[C@H](C(=O)Nc2nc3ccccc3s2)[C@H]2C(=O)O[C@H](c3ccccc3)[C@H](c3ccccc3)N2[C@@H]1c1ccc(O)cc1" at or above 0.3?
Result: T

Query: Is composite z-score for CC(C)N1CC=CC23O[C@@H]4C=CCOC(=O)[C@@H]4[C@H]2C(=O)N(C(C)CO)[C@@H]3C1=O (stereo partly drawn) at or above 0.3?
Result: F

Query: Is composite z-score for COc1cc(OC)c(C(O)C2C=CC3C(=O)N(c4ccccc4)C(=O)C3N2Nc2ccc(C#N)cc2)cc1Br (stereo not drawn) at or above 0.3?
Result: T

Query: Is composite z-score for "Cc1ccc(S[C@]2(C(=O)NCC(F)(F)F)CC(=O)N(Cc3ccccc3)[C@@H]2c2ccc(CO)cc2)cc1" at or above 0.3?
Result: F

Query: Is composite z-score for CC=CC(O)C1C=CC2C(=O)N(c3ccccc3)C(=O)C2N1Nc1ccccc1 (stereo not drawn) at or above 0.3?
Result: F

Query: Is composite z-score for Cc1ccc(C(C)CC(O)C2C=CC3C(=O)N(c4ccccc4)C(=O)C3N2Nc2ccc(C(C)C)cc2)o1 (stereo not drawn) at or above 0.3?
Result: T

Query: Is composite z-score for "COc1c(C)cc(-c2cc3c(c(Cc4ccccc4)n2)[Si](C(C)C)(C(C)C)OC3)cc1C" at or above 0.3?
Result: F

Query: Is composite z-score for "C[C@H]1ON(c2ccc(C(=O)OC(C)(C)C)cc2)[C@@H](c2ccc(O)cc2)[C@@H]1C(=O)N1C(=O)OC[C@@H]1c1ccccc1" at or above 0.3?
Result: F

Query: Is composite z-score for "Cc1c(NC(=O)/C(C#N)=C/C=C/c2ccccc2[N+](=O)[O-])c(=O)n(-c2ccccc2)n1C" at or above 0.3?
Result: F

Query: Is composite z-score for "Cc1ccc(F)cc1S(=O)(=O)N[C@@H]1CCN(Cc2ccc(Oc3ccccc3)cc2)C1" at or above 0.3?
Result: F

----------
biological target: Neurogenic locus notch homolog protein 3 (Homo sapiens) (UniProt Q9UM47); assay: NOTCH3 binders on small-molecule microarray, primary screen, biochemical, 635/667 nm fluorescence (AID 1096); settings: NOTCH3 binding, 635 nm fluorescence, higher = more signal
Sequence (Q9UM47 whole entry, looked up): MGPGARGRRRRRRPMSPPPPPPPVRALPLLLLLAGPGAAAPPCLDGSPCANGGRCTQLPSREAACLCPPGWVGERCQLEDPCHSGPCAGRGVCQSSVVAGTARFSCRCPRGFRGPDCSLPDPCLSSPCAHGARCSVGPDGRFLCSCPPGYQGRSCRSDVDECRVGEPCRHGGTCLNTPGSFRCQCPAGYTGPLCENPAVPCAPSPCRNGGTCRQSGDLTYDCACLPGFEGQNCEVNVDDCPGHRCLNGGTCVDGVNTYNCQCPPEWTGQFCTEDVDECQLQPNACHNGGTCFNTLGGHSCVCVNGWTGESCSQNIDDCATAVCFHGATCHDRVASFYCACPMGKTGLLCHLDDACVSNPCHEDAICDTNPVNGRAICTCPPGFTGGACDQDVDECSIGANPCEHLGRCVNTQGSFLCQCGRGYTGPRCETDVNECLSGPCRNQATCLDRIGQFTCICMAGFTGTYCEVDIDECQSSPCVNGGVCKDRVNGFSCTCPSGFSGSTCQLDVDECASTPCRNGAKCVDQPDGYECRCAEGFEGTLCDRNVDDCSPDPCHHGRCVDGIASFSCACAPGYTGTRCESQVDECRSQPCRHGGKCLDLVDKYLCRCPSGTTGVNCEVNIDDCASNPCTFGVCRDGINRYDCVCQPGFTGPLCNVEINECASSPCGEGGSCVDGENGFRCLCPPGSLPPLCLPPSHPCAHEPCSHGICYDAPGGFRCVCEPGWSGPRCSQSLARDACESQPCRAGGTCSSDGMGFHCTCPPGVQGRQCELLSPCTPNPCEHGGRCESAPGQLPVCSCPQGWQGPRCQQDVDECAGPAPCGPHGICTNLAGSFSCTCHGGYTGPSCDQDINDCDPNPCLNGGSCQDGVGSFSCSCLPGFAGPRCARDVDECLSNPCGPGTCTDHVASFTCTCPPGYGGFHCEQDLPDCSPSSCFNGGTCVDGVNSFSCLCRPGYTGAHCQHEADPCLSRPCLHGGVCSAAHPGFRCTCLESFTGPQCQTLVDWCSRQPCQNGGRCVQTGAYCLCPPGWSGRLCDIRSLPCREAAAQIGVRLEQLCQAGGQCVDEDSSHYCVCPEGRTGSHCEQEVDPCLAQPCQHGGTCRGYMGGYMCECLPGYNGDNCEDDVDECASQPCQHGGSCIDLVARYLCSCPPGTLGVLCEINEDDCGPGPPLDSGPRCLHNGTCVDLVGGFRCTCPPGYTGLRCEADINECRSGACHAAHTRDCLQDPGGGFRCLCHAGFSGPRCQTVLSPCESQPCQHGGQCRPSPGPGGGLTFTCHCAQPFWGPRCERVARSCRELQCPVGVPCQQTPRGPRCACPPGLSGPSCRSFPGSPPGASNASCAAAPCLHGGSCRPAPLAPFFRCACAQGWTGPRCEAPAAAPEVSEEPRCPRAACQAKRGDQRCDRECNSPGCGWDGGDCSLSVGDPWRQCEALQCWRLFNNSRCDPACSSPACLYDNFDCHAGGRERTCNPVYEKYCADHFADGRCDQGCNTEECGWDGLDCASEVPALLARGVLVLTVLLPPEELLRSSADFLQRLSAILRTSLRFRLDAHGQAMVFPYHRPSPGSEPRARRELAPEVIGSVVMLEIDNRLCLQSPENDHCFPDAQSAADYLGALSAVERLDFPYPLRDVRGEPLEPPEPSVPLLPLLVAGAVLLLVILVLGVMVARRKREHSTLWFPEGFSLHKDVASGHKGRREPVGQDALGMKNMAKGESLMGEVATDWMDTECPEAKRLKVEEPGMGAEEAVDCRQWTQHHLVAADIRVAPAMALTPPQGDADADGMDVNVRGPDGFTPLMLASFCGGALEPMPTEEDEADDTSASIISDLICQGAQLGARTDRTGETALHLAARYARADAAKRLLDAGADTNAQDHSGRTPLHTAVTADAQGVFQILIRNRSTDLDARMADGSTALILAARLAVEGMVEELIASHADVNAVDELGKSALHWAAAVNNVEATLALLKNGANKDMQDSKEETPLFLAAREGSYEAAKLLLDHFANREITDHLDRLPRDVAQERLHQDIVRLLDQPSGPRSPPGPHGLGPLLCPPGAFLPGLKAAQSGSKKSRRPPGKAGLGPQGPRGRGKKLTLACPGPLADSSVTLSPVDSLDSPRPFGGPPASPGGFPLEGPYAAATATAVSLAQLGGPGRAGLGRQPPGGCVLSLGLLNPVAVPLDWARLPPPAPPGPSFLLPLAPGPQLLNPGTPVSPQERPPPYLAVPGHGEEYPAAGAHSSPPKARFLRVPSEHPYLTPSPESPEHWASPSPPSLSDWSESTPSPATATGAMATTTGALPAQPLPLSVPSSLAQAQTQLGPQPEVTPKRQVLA
Readings of composite z-score for the listed compounds
I'd appreciate a reply containing only the number, no unit.

Sample records with composite z-score:
{"columns": ["smi", "observedResult"],
 "data": [
  ["CCCCC(=C=CC[C@@H](O)c1ccc(OCCO)cc1)C[C@@H](O)COCc1ccccc1", -0.198],
  ["O=C1C[C@]2(c3ccc([N+](=O)[O-])cc3)C(=O)N(Cc3ccccc3)c3cc(CO)ccc3[C@H]2N1CC12CC3CC(CC(C3)C1)C2", -1.94],
  ["O=C1c2ccccc2[C@@]2(Cc3ccccc3N(C3CC3)C2=O)[C@H](c2ccc(CO)cc2)N1C1CCCCC1", -0.938]
]}

# context switch: different compound, same composite z-score
Query: Please tell me: composite z-score of "CCOC(=O)C[C@H]1[C@H](OC(=O)Cc2ccc3c(c2)OCO3)[C@@H](NC(=O)Cc2ccc(OC)cc2)c2cc(OCCCO)ccc2N1C(=O)c1ccccc1" , system Neurogenic locus notch homolog protein 3 (Homo sapiens) (UniProt Q9UM47)?
Result: 0.608

----------
test system: XIP peptide (Xip251-270); assay: small-molecule binders of XIP peptide, primary screen, biochemical, small-molecule microarray, fluorescence 635/667 nm, 0.5 µg/mL protein (AID 1183); conditions: small-molecule microarray binding, fluorescence 635 nm; higher = more signal
assayReadout: composite z-score
I'd appreciate a reply containing only the number, no unit.

Sample records with composite z-score:
{"columns": ["molecule", "composite z-score"],
 "data": [
  ["C=CCNC(=O)[C@@H]1[C@H]2C(=O)O[C@H](c3ccccc3)[C@H](c3ccccc3)N2[C@H](c2ccccc2OCCO)[C@@]12C(=O)N(C(=O)OCCOC)c1ccc(C#CC3=CCCCC3)cc12", 0.769],
  ["CC(C)N1CC=CC23O[C@@H]4C=CCCOC(=O)C4[C@H]2C(=O)N(CCO)[C@@H]3C1=O (stereo partly drawn)", 0.172]
]}

# context switch: different molecule, same composite z-score
Query: Look at this molecule and give its reported composite z-score. CC(=O)n1cc(C(O)C2C=CC3C(=O)N(Cc4ccccc4)C(=O)C3N2n2cnnc2)c2ccccc21 (stereo not drawn)
Result: 0.008

----------
assay: small-molecule microarray binders of probe aWnt5a, primary screen, biochemical, biotinylated probe, 635/667 nm fluorescence (AID 1113); conditions: higher = more signal;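 also: score merges 667 nm fluorescence intensity with signal-to-noise per printed feature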
assayReadout: composite z-score

Sample records with composite z-score:
{"columns": ["compound", "composite z-score"],
 "data": [
  ["CC(C)C(O)C1C=CC2C(=O)N(C)C(=O)C2N1Nc1ccccc1 (centres undefined)", 0.175],
  ["C[n+]1ccc(CCCO)cc1", -0.0462],
  ["COC(=O)[C@@]1(Cc2ccccc2)[C@H]2c3cc(C(=O)N4CCCC4)n(C[C@H](O)CO)c3C[C@H]2CN1C(=O)c1ccccc1", -0.124]
]}

Query: Look at this compound and give its reported composite z-score. "CC(=O)N1Cc2ccccc2C[C@]2(N=C(c3ccc(OCCCO)cc3)O[C@@H]2c2ccccc2)C1=O"
Result: -0.13
